Values from patent US20190233498A1

Biological target: T1, human VIP (human)
T1 construct: also called Vasoactive Intestinal Peptide
T1 peptide: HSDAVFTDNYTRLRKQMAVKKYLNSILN
Assay: SPR, Ab immobilised
As shown below, each of these binders has a reported log10 Kd value.
Reported Metric: log10 Kd (log10 of the value in µM)

| Binder | Assay Result |
| --- | --- |
| anti-PACAP antibody Ab6 (antibody, human IgG1, kappa, N297A, V domains shown, full-length rabbit/human chimeric antibody) VH: LEQSGGGAEGGLVKPGGSLELCCKASGFSLSSTYWMCWVRQAPGKGLEWIGCIYTGSGSTDYASWVNGQFTLSRDIDQSTGCLQLNSLTVADTAMYYCTKNFDLWGPGTLVTVSS VL: AQVLTQTPSSVSAAVGGTVTINCQSSPSVYSNNYLSWFQQKPGQPPKGLIADASTLASGVPSRFKGSGSGTQFTLTISGVQCDDAAAYYCLGYYDCGSTDCHAFGGGTEVVVKR | -1.36 |
| anti-PACAP antibody Ab3.H (antibody, human IgG1, kappa, N297A, V domains shown, humanized form of Ab3, full length) VH: EVQLVESGGGLVQPGGSLRLSCAASGFSFSSSDYMCWVRQAPGKGLEWIGCIDAGSSGDTYFASSAKGRFTISRDNSKNTVYLQMNSLRAEDTAVYFCARHLYGSITFAFGLWGQGTLVTVSS VL: AAQMTQSPSTLSASVGDRVTITCQASQSIGSDLAWYQQKPGKAPKLLIYDASTLASGVPSRFSGSGSGTEFTLTISSLQPDDFATYYCQGTYYSSGWYTAFGGGTKVEIKR | 5.00 |
| anti-PACAP antibody Ab17 (antibody, human IgG1, kappa, N297A, V domains shown, full-length rabbit/human chimeric antibody) VH: QSVEESGGRLVTPGTPLTLTCTVSGFSLSSAAMNWVRQAPGKGLEWIGIFDPYSSTYYASWAKGRFTISKTSSTTVDLKMTSPTTEDTATYFCARGGGEFFIWGPGTLVTVSS VL: AQVLTQTPSSVSAAVGGTVTINCQSSQSVYKNKYLSWYQQKVGQPPKFLIYQASNLASGVPSRFKGSGSGTQFTLTISDLECDDAATYYCAGGYSGNMVDFGGGTEVVVKR | -1.26 |
| anti-PACAP antibody Ab9 (antibody, human IgG1, kappa, N297A, V domains shown, full-length rabbit/human chimeric antibody) VH: EQSGGGAEGGLVKPGGSLKLSCKASGFTISRDYWICWVRQAPGKGLEWIGCISAGGGSTDYANWVNGRFTLSRDIDQSTGCLQLNSLTDADTAMYYCAGNLEIWGQGTLVTVSS VL: AQVLTQTPSSVSAAVGGTVTINCQSSPSIYSGAFLSWFQQKPGQPPKFLIYEASKLASGVPSRFSGSGSGTQFTLTISDVQCDDAATYYCLGFYDCSSVDCHAFGGGTEVVVKR | 5.00 |
| anti-PACAP antibody Ab9.H (antibody, human IgG1, kappa, N297A, V domains shown, humanized form of Ab9, full length) VH: EVQLVESGGGLVQPGGSLRLSCAASGFTVSRDYWICWVRQAPGKGLEWIGCISAGGGSTDYANWVNGRFTISRDISKNTGYLQMNSLRAEDTAVYYCAGNLEIWGQGTLVTVSS VL: DIQMTQSPSTLSASVGDRVTITCQSSPSIYSGAFLSWYQQKPGKAPKFLIYEASKLASGVPSRFSGSGSGTEFTLTISSLQPDDFATYYCLGFYDCSSVDCHAFGGGTKVEIKR | 0.18 |
| anti-PACAP antibody Ab13 (antibody, human IgG1, kappa, N297A, V domains shown, full-length rabbit/human chimeric antibody) VH: QSVEESGGRLVTPGTPLTLTCTVSGFSLSSAAMNWVRQAPGKGLEWIGIIDNTAGTYYAPWAKGRFTISKTSSTTVDLKMTSPTTEDTATYFCARGGGEFFIWGPGTLVTVSS VL: AQVLTQTPSSVSAAVGGTVTINCQSSQSVHDGSYLSWYQQKPGQPPNFLIYQASNLASGVPSRFKGSGSGTQFTLTISDLECDDAATYYCAGGYSSNICGFGGGTEVVVKR | -0.85 |
| anti-PACAP antibody Ab11 (antibody, human IgG1, kappa, N297A, V domains shown, full-length rabbit/human chimeric antibody) VH: QSVEESGGRLVTPGTPLTLTCTASGFSLSRYAMGWVRQAPGKGLEWIGDISTYGTTDYASWVNGRFTISRTSTTVTLKMTSLTTEDTATYFCARDYWLSLWGQGTLVTVSS VL: AAVLTQTPSPVSAAVGGTVTIKCQSSQSVYDNNALAWYQQKPGQPPKLLIYAASNLASGVPDRFSGSGSGTQFTLTISGVQCDDAATYYCLGGYDDAADNAFGGGTEVVVKR | -0.64 |
